assay metric: melting point

## Task Quick check: melting point of `Cc1oc(-c2cccc(Br)c2)nc1CCOc1ccc(OC(C)(C)C(=O)O)cc1` ?
## Result 158 to 159 °C

## Task Please do the same for `NS(=O)(=O)c1c(Cl)nc2ccc(C3CC3)nn12` as well.
## Result 194 to 196 °C

## Task Record: `Cc1ncn(Cc2ccc(N)cc2C(F)(F)F)c1C`
## Result 185 to 186 °C

## Task `O=c1[nH]c(-c2c[nH]c3ccccc23)nc2ccc(N3CCOCC3)cc12` , same question.
## Result > 300 °C

---

Quick reference: melting point of the listed items.

Example results:
>  <molecule>
Cc1cc2ncccc2[nH]1

>  <melting point>
193 to 195 °C

$$$$
>  <molecule>
COc1cc(OC)c2c(=O)[nH]c(-c3cc(C)c(OCCn4ccnc4)c(C)c3)nc2c1

>  <melting point>
218 to 219 °C

$$$$
>  <molecule>
CN1Cc2ccccc2C(=O)c2cc(CC(=O)O)ccc21

>  <melting point>
194 to 196 °C

$$$$

## Task Please look up its melting point: `Oc1ccc(CCNc2ncnc3c(F)ccc(F)c23)cc1`
## Result 221 to 222 °C

## Task Also check `CC1(C)C(=O)Nc2ccc(-c3ccc(F)c(Cl)c3)cc21`
## Result 206 to 208 °C

## Task Also `Cc1nc(-n2cc(Cl)ccc2=O)sc1C(=O)NCc1ccccc1` , if possible.
## Result 173 to 174 °C

## Task Another molecule to check: `O=C(O)CCCOc1ccc(-c2ccc(-c3c(Cc4ccccc4)sc4ccccc34)cc2)cc1Br`
## Result 135 to 137 °C

## Task Follow-up entry: CCCCN(C)C(=O)CCCCCCCCCCSC1Cc2cc(O)ccc2C2CCC3(C)C(O)CCC3C12 (stereo not given)
## Result 71 to 75 °C

## Task And `CCCc1nsc(N=C(Cl)N(C)C)c1C#N` ?
## Result 108 to 109 °C

## Task Also `O=c1c2cccc3c2n(c(=O)n1CCO)-c1cc(C(F)(F)F)ccc1S3` , if possible.
## Result 90 to 93 °C

---

assay metric: melting point

>  <compound>
CCCc1c2c(c(O)c3c(=O)cc(C(=O)OCC)oc13)CCCC2

>  <assay metric>
melting point

>  <measurement>
136 to 138 °C

$$$$
>  <compound>
COC(=O)c1nc2cccc(OC)c2c(O)c1C(=O)OC

>  <assay metric>
melting point

>  <measurement>
184 to 186 °C

$$$$
>  <compound>
CCOC(=O)C=CC=Cc1ccc(OC)c(C)c1C

>  <assay metric>
melting point

>  <measurement>
92 to 95 °C

$$$$
>  <compound>
N#Cc1ccc(Nn2cnnc2)cc1-c1ccc(OCc2ccccc2)cc1

>  <assay metric>
melting point

>  <measurement>
180 to 182 °C

$$$$
>  <compound>
Cc1ccc(C2(O)c3c(C)c(N)c(C)c(C)c3OC2(C)C)cc1 (stereo unspecified)

>  <assay metric>
melting point

>  <measurement>
165 to 166 °C

$$$$
>  <compound>
CC1=Nc2c3cc(C(=O)O)nc-3ccn2C1

>  <assay metric>
melting point

>  <measurement>
325 to 327 °C

$$$$
>  <compound>
O=C(O)C(=C1SCCCS1)c1cccc(C(F)(F)F)c1

>  <assay metric>
melting point

>  <measurement>
165 to 166 °C

$$$$
>  <compound>
CC(C)c1nsc(N)c1C#N

>  <assay metric>
melting point

>  <measurement>
130 to 132 °C

$$$$

## Task Quick one: melting point for `COC(=O)CCC/C=C(/c1cc(C)c2onc(OC)c2c1)c1cc(C)c2oc(=O)n(C)c2c1` ?
## Result 54 to 55 °C

## Task Here is the next compound: `O=C(Nc1ccccc1)Nc1ccc(Cc2ccc(NC3=NCCN3)cc2)cc1`
## Result 167 to 170 °C

## Task Same lookup for `COc1ccc(Cn2cnc3c(-c4ccco4)nc(C(C)C)nc32)cc1` , please.
## Result 123 °C

## Task Consider next the compound `O=C1C(=O)c2ccccc2C2=C1SCC1(CCN(C(=O)Cc3ccc(Cl)cc3)CC1)O2` in the same way.
## Result 120 to 125 °C

---

assay metric: melting point

Recorded melting point, per entry:
>  <compound>
CCOC(=O)CCN1CCC(OC(c2ccccc2)c2ccc(C)cc2)CC1 (stereo unspecified)

>  <melting point>
101 to 104 °C

$$$$
>  <compound>
Nc1ccc2c(=O)n3c(nc2c1)C(=Cc1ccccc1)CCC3

>  <melting point>
190 to 193 °C

$$$$

## Task GET /values?readout=melting point&item= `O=[N+]([O-])c1ccc2c(c1)CN(Cc1ccccc1)C2`
## Result 80.5 to 81 °C

## Task Then `O=C(CN1c2ccccc2Cn2c1nc(-c1ccncn1)cc2=O)c1ccccc1` ?
## Result 263 to 265 °C

## Task `Cc1sc2c(c1C)CNC(Cl)=N2` , same question.
## Result 170 to 172 °C

## Task Follow-up entry: `Nc1sc2c(c1C(=O)c1ccc(F)cc1)CCN(C(=O)OCc1ccccc1)C2`
## Result 90 to 92 °C

## Task Continue with `CCOc1nn(Cc2ccc(OCc3coc(-c4ccccc4)n3)cc2)cc1CCC(=O)O`
## Result 135 to 136 °C

## Task Moving on to the next compound: `CCCC=NNc1cc2c(nn1)CCN(C(=O)c1ccc(-c3ccccc3)cc1)C2`
## Result 260 to 262 °C

## Task Next record, please: `CCOc1sc(C(=O)O)c2c1-c1c(cnn1C)CC2`
## Result 258 to 260 °C

## Task Okay, and `CCOC(=O)c1cc2c(Cl)cccc2n1CC#N` ?
## Result 143 to 144 °C

## Task Please give the result for `CN(C)C(=O)Nc1coc2ccccc2c1=O` too.
## Result 148 °C

## Task For CC12CCC(O)C(O)C1=CCC1C2CCC2(C)C(O)C(O)CC12 (stereo unspecified) then?
## Result 238 to 241 °C

## Task Another compound: `O=Cc1ccc2c(c1)Cc1cccnc1O2`
## Result 171 to 173 °C

---

Measured melting point by item

Examples with their reported melting point follow.
>  <compound>
CCOP(=O)(OCC)c1ccc(NC(=O)C2Cc3c(cccc3C(C)C)C(=O)CS2(=O)=O)cc1 (centres undefined)

>  <melting point>
229 to 230 °C

$$$$
>  <compound>
CS(=O)(=O)Nc1cc(NC(=O)CCl)ccc1Oc1ccccc1

>  <melting point>
126 to 128 °C

$$$$
>  <compound>
CC(=O)N1CCCC1CN1C(=O)C2(COc3cc4c(cc32)CCO4)c2ccccc21 (centres undefined)

>  <melting point>
103 to 108 °C

$$$$
>  <compound>
O=C(Nc1ccc(CO)cc1)C1=Cc2cc(-c3ccccc3)ccc2CC1

>  <melting point>
207 to 210 °C

$$$$

## Task Query: melting point; subject: `c1cc(-c2ccc(N3CCNCC3)nc2)nc(Nc2ccc3cc[nH]c3c2)n1`
## Result 201 to 203 °C

## Task Same again, this time with O=C1Nc2ccc(Cl)cc2C1(O)c1cccc2c1OCO2 (centres undefined)
## Result 271 °C

## Task Param item: `N#Cc1c(-c2ccccc2)cc(-c2ccccc2)nc1N`
## Result 170 to 174 °C

## Task Again, but for CNC(=O)C(Cc1ccc(O)cc1)NC(=O)Nc1n[nH]c(=S)s1 (centres undefined)
## Result 198 to 200 °C

## Task Try the compound `CCCCc1cn(CCC(C)C)c(=O)n1Cc1ccc(-c2ccccc2-c2nnn[nH]2)nc1`
## Result 168 to 170 °C

---

assay metric: melting point

Sample answers from the record:
>  <compound>
O=C(NO)c1ccc(CNC(=O)c2[nH]c(-c3ccc(F)cc3)cc2-c2ccc(F)cc2)cc1

>  <melting point>
219 to 220 °C

$$$$
>  <compound>
Cc1cc(Cn2cnc(Cl)c2CC#N)ccc1OCc1ccccc1

>  <melting point>
102 to 105 °C

$$$$

## Task // lookup melting point for CC(C)C(NC(=O)OC(C)(C)C)C(=O)OC(O)C(=O)C1C(C)CC2C3CC(F)C4=CC(=O)C=CC4(C)C3C(O)CC21C (centres undefined)
## Result 166 to 168 °C

## Task Another: COC(C)c1nsc2ccc(-n3c(=O)cc(C(F)(F)F)n(C)c3=O)cc12 (centres undefined)
## Result 133 to 135 °C

## Task Same again, this time with `O=C(N[C@H](Cc1ccccc1)C(=O)O)OCc1ccc2[nH]c(-c3ccccc3)cc2c1`
## Result 176 to 177 °C

## Task Check CNC1(Cc2ccccc2)C(=O)Nc2ccc(Cl)cc21 (centres undefined) too.
## Result 196 °C

## Task Also, CC(C)Cc1nn(C)c(=O)c2c(S(=O)CCCO)c(Cc3cccc4ccccc34)sc12 (centres undefined) please.
## Result 60 to 65 °C

## Task Subsequent entry: `CCOC(=O)c1c(Cn2ccccc2=O)nc2cc(OC)c(OC)cc2c1-c1ccc(OC)c(OC)c1`
## Result 154 to 156 °C

## Task How about `O=Cc1cc(Br)c(Cl)s1` ?
## Result 61 to 62 °C

## Task Record: `O=C(O)c1cn(Cc2cnsn2)c2c(F)c(F)c(F)cc2c1=O`
## Result 220 to 222 °C
